Target: T1, rabbit PDGF (rabbit)
T1 construct: Printed only as rabbit PDGF
Experiment: SPR, Fab fragment; assay format for PDGF not described
readout label: pKd
// scale note: pKd = -log10(conc_M); give the bare number

| binder | pKd |
| --- | --- |
| bispecific anti-VEGF/anti-PDGF-B Fab fragment 28.01 (Fab, V domains shown) VH: DLQLVESGGGLVKPGGSLRLSCAADGWWFGYTDMSWVRQAPGKGLEWVGSISYKGGSTYYNTKFIGRFTISRDDDTNTLYLQMNSLRAEDTAVYYCARDDGYFDTWGQGTLVTVSS VL: AIHMYQEPSSLSASVGDRVTITCHGSYWLSNYLAWYQQKPGKAPKLLIYDGKEREHGVPSRFSGSGSHEDYTLTISSLQPEDFATYYCQQYRYHPYTFGHGTKVEIKR | 9.22 |
| bispecific anti-VEGF/anti-PDGF-B Fab fragment P1AA9124 (Fab, V domains shown) VH: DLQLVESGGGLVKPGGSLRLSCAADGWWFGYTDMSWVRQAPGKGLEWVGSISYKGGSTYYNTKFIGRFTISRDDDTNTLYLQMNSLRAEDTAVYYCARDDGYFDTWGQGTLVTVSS VL: AIQMTQSPSSLSASVGDRVTITCHGSYWLSNYLAWYQQKPGKAPKLLIYDGKEREHGVPSRFSGSGSHEDYTLTISSLQPEDFATYYCQQYRYHPYTFGQGTKLEIKR | 9.15 |

Could you tell me which pKd is on file for bispecific anti-VEGF/anti-PDGF-B Fab fragment 28.07 (Fab, V domains shown) VH: DLQLVESGGGLVKPGGSLRLSCAADGWWFGYTDMSWVRQAPGKGLEWVGSISYKGGHKYLNTKFIGRFTISRDDDTNTLYLQMNSLRAEDTAVYYCARDDGYFDTWGQGTLVTVSS VL: AIYMHQEPSSLSASVGDRVTITCHGSYWLSNYLAWYQQKPGKAPKLLIYDGKEREHGVPSRFSGSGSHEDYTLTISSLQPEDFATYYCQQYRYHPYTFGHGTKVEIKR ?
9.15

Could you tell me which pKd is on file for bispecific anti-VEGF/anti-PDGF-B Fab fragment 28.02 (Fab, V domains shown) VH: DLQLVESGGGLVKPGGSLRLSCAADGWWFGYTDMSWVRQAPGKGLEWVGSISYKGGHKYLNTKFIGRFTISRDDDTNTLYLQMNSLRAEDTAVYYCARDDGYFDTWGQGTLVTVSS VL: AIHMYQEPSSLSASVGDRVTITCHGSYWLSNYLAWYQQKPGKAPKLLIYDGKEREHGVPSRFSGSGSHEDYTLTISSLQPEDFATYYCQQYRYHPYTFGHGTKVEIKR ?
9.15

Could you tell me which pKd is on file for bispecific anti-VEGF/anti-PDGF-B Fab fragment RO7113083 (Fab, V domains shown, also called R07113083) VH: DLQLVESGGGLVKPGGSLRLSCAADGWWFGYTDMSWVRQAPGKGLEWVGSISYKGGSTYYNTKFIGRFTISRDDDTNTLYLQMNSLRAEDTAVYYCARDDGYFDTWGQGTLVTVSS VL: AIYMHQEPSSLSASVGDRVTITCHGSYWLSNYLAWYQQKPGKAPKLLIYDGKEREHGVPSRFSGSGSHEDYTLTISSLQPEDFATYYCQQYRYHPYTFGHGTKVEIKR ?
9.22
